- System: TK-10
- protocol description: NCI tumour cell line growth inhibition, 48 h
Activity calls are given as the source filed them. Rule as the data show it: active = GI50 up to about 1.1 µM and inactive = higher.
readout type: GI50

> print(dat)
                                   compound  readout.type        reported.value
1  CN(C)CCC(/C=C/c1ccccc1)=N\Nc1ccc(Cl)c(Cl)c1          GI50    2.38 µM (inactive)
2  C/C(=C\c1ccccc1)C(=O)NCc1ccc(C(=O)NCCc2c[nH]c3ccccc23)cc1          GI50    16.4 µM (inactive)
3     O=C(Cc1nc2ccccc2s1)C(=O)Nc1ccc(Cl)cc1          GI50   > 100 µM (inactive)
4  Fc1ccc(C(OCCN2CC3CCC(C2)N3CCCc2ccccc2)c2ccc(F)cc2)cc1          GI50    11.7 µM (inactive)
5  CN1N(c2ccccc2)C(=O)C2=NC=C(C#N)C(=N)C21C (stereo not given)          GI50   > 100 µM (inactive)
6       CN(C)CCCc1cccc2[nH]c3c(c12)CN(C)CC3          GI50   > 100 µM (inactive)
7  CN(CCCN1C(=O)c2cccc3cc([N+](=O)[O-])cc(c23)C1=O)CCN(C)CCCN1C(=O)c2cccc3cc([N+](=O)[O-])cc(c23)C1=O          GI50  > 39.3 µM (inactive)
8  COC1CC(n2cc(F)c(N)nc2=O)OC1CO (stereo not given)          GI50   > 100 µM (inactive)

Prompt line: Quick one: GI50 for CC(=O)NC(Cc1ccc(O)cc1)C(=O)O (stereo not given) ?
Response line: > 100 µM (inactive)

Prompt line: Then what about the compound `COc1ccc2nc(-n3c(/C=C/c4ccccc4O)nc4ccccc4c3=O)sc2c1` ?
Response line: > 100 µM (inactive)

###

- System: HOP-92
- protocol description: NCI tumour cell line growth inhibition, 48 h
The source made the active and inactive calls. Cut-off read from the data, not from the text of the source: active = GI50 up to about 1.1 µM and inactive = higher.
readout type: GI50

For orientation, consider the following solved cases.
> print(dat)
                                   molecule  target.system       reported.value
1              O/N=C\c1cc(O)c(O)c(/C=N/O)c1         HOP-92   49.9 µM (inactive)
2   CCc1ccc2nccc(NCCCN(C)C)c2c1[N+](=O)[O-]         HOP-92  > 100 µM (inactive)
3  CN(O)C(=O)CCC(NC(=O)CCC(N)C(=O)O)C(=O)NCC(=O)O (stereo not given)         HOP-92  > 100 µM (inactive)
4  CCCC[C@@H]1CCN2C[C@@H](O)[C@@H](O)[C@H]2[C@@H]1O         HOP-92  > 100 µM (inactive)

Moving on to the next molecule.
Prompt line: Quick one: GI50 for O=C1C(Cl)C2(CC(/C=C/c3ccccc3Cl)=NN2c2cccc(S(=O)(=O)O)c2)N1c1nc2ccccc2s1 (stereo not given) ?
Response line: 36.6 µM (inactive)

###

Listed next: entries and their corresponding GI50.
- System: SK-MEL-2
- protocol description: NCI tumour cell line growth inhibition, 48 h
Calls of active or inactive are those of the source. Rule as the data show it: active = GI50 up to about 1.1 µM and inactive = higher.

For orientation, consider the following solved cases.
> print(dat)
                        structure.as.smiles  readout.type       reported.value
1                        CN(CC(=O)O)CC(=O)O          GI50  > 100 µM (inactive)
2  COc1cc(/C=C/c2nc(NC(=S)Nc3ccccc3)nnc2C)cc(OC)c1OC          GI50   14.5 µM (inactive)
3  CC(=O)O[C@H]1C(=O)[C@@]2(C)[C@H]([C@H](OC(=O)c3ccccc3)[C@@]3(O)C[C@H](O)C(C)=C1C3(C)C)[C@]1(OC(C)=O)CO[C@@H]1C[C@@H]2O          GI50   46.9 µM (inactive)

Prompt line: Form entry - test system: SK-MEL-2; read-out: GI50; compound: `Cc1ccc([N+](=O)[O-])cc1NC(=O)/C(CC(=O)c1sc(C(N)=S)nc1C)=N\N`
Response line: > 100 µM (inactive)

Prompt line: Then what about the compound `O=[N+]([O-])c1cccc(/C=N/C23CC4CC(CC(C4)C2)C3)c1` ?
Response line: > 100 µM (inactive)

Prompt line: Then what about the compound `COc1ccc(/C(Cl)=C(\C#N)c2ccc(OC)c(OC)c2)cc1OC` ?
Response line: 96.2 µM (inactive)

Prompt line: Then what about the compound `S=C(/N=c1/sc(Nc2ccccc2)nc2sc3c(c12)CCCC3)Nc1ccccc1` ?
Response line: > 62.5 µM (inactive)

Prompt line: Then what about the compound `N=C(N)NS(=O)(=O)c1ccc(NC(=O)c2c3ccccc3nc3ccccc23)cc1` ?
Response line: > 100 µM (inactive)

Prompt line: Then what about the compound `N#Cc1c(N2CCOCC2)ncn(-c2ccc(Cl)cc2)c1=O` ?
Response line: > 100 µM (inactive)

###

- Test system: SW-620
- protocol description: NCI tumour cell line growth inhibition, 48 h
Active and inactive are the calls of the source. Rule as the data show it: active = GI50 up to about 1.1 µM and inactive = higher.
Classes to choose from: YES for active, NO for inactive

> print(dat)
                                   molecule  target.system  class.label
1  O=[N+]([O-])C(=C/c1cccs1)/C(=C\c1cccs1)[N+](=O)[O-]         SW-620          YES
2                 O=C1NC(=S)N(c2ccccc2)C1=O         SW-620           NO
3  CO[C@H]1SC[C@H](OC(C)=O)[C@H](OC(C)=O)[C@H]1OC(C)=O         SW-620           NO
4     Cc1cccc(NC(=O)CSc2nnc(Cc3ccccc3)o2)c1         SW-620           NO
5  O=C(CSc1nnc(Cc2ccccc2)o1)Nc1ccc(Cl)cc1Cl         SW-620           NO
6  COc1c(Sc2c(SCSc3cnc4ccccc4c3Sc3cnc4ccccc4c3OC)cnc3ccccc23)cnc2ccccc12         SW-620           NO
7  Clc1nc(-[n+]2ccc(-c3ccncc3)cc2)nc(Nc2ccccc2)c1Cl         SW-620           NO
8  COc1ccc(C(=O)/C=C/c2ccc(OCC(=O)O)cc2)cc1         SW-620           NO

Prompt line: What did this assay record as the result for `COc1cc(C(=O)/C=C/c2ccc(OCC#N)cc2)cc(OC)c1OC` ?
Response line: NO

Prompt line: Then what about the molecule N#CC(c1ccccc1)N1CCCN(C(C#N)c2ccccc2)C1c1ccccc1O (stereo not given) ?
Response line: NO

###

- Test system: SF-295
- protocol description: NCI tumour cell line growth inhibition, 48 h
The source made the active and inactive calls. Cut-off read from the data, not from the text of the source: active = GI50 up to about 1.1 µM and inactive = higher.
Listed next: entries and their corresponding GI50.

For orientation, consider the following solved cases.
molecule	GI50
CC(=O)c1ccc(NC(=O)C(=O)Nn2c(S)nc3ccccc3c2=O)cc1	> 100 µM (inactive)
C/C(CC(=O)Nc1ccc([N+](=O)[O-])cc1)=N\NC(N)=O	> 100 µM (inactive)
NC(=O)c1csc(C2C=CC(CO)O2)n1 (stereo unspecified)	> 10 µM (inactive)
CCCCNN	> 100 µM (inactive)
Cc1[nH]c2ccccc2c1/C=N/c1ccc(/N=C/c2c(C)[nH]c3ccccc23)cc1	40.6 µM (inactive)
O=C1CCC(=O)N2CCCCN12	> 100 µM (inactive)
Cc1ccccc1/N=N/c1ccc(/N=N/c2c(O)ccc3cc(S(=O)(=O)O)cc(S(=O)(=O)O)c23)c(C)c1	> 100 µM (inactive)
CSC1=NC(=O)CCN1C1OCC(OC(C)=O)C(OC(C)=O)C1OC(C)=O (stereo unspecified)	20.1 µM (inactive)
O=C(Nc1cccc2cnccc12)c1cc2c(cc1Cl)Sc1nccn1S2(=O)=O	15.4 µM (inactive)
Clc1ccc(C2C3COc4ccccc4C3=NN2c2ccccc2)cc1 (stereo unspecified)	> 100 µM (inactive)

Prompt line: Quick one: GI50 for CC(=O)Oc1ccc(/C=C/C(=O)NCC(NC(=O)/C=C/c2ccc(OC(C)=O)c(OC(C)=O)c2)C(=O)O)cc1OC(C)=O (stereo unspecified) ?
Response line: > 100 µM (inactive)

Prompt line: Then what about the molecule CCOC(=O)C(NC(=O)CC)(N1CCN(c2cc3c(cc2F)c(=O)c(C(=O)O)cn3C2CC2)CC1)C(F)(F)F (stereo unspecified) ?
Response line: > 100 µM (inactive)

Prompt line: Then what about the molecule CCNC(=O)O/N=C1\CCC2[C@@H]3CC=C4C[C@@H](OC5CCCCO5)CC[C@]4(C)C3CC[C@]12C (stereo partly specified) ?
Response line: 2.17 µM (inactive)

Prompt line: Then what about the molecule `Cc1cc2c(c(=O)n1C)SCC2` ?
Response line: > 100 µM (inactive)
